Data origin, for the record: ChEMBL document CHEMBL4152311

Target protein (sequence): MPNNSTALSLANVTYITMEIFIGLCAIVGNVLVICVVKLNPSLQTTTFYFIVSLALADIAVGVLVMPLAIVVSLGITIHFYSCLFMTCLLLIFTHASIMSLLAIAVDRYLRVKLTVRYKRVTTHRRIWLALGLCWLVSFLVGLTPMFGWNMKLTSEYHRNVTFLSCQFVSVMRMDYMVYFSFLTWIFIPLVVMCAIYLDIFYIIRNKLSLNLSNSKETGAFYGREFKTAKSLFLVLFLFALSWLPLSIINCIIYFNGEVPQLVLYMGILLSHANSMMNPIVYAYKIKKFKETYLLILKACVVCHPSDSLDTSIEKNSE
Parameter: Ki (nM)

a. Cc1ccc(-c2nc3c(N)nc(NCc4cccs4)nc3s2)o1
b. COc1cccc(CNc2nc(N)c3nc(-c4cccs4)sc3n2)c1
Request: Quick check, higher Ki between a and b ? Lab log: write the label of the selected item as the result.
Response: b
(b: 430 nM, a: 15.3 nM)

----------
- Assay Target: Adenosine receptor A3 (Homo sapiens)
- Method Description: Inverse agonist activity at human adenosine A3 receptor expressed in CHO cells assessed as cAMP accumulation at 10 uM measured after 150 mins in presence of [3H]cAMP by scintillation counting method relative to control
- Format: functional, cell-based
Parameter: Activity (%)

Request: Fill in reported Activity for this entry: Nc1nc(NCc2ccncc2)nc2sc(-c3ccco3)nc12
Response: 102

Request: Fill in reported Activity for this entry: Nc1nc(NCc2cnccn2)nc2sc(-c3ccco3)nc12
Response: 98

Request: Fill in reported Activity for this entry: Nc1nc(NCc2cccs2)nc2sc(-c3cccs3)nc12
Response: 99

Request: Fill in reported Activity for this entry: Nc1nc(NCc2ccccn2)nc2sc(-c3ccco3)nc12
Response: 101

Request: Fill in reported Activity for this entry: Nc1nc(NCc2ccco2)nc2sc(-c3ccco3)nc12
Response: 104

Request: Fill in reported Activity for this entry: Nc1nc(NCCc2cccnc2)nc2sc(-c3ccco3)nc12
Response: 102

Request: Fill in reported Activity for this entry: Nc1nc(NCCc2cccs2)nc2sc(-c3ccco3)nc12
Response: 94

Request: Fill in reported Activity for this entry: Nc1nc(NCc2cccnc2)nc2sc(-c3ccco3)nc12
Response: 100

Request: Fill in reported Activity for this entry: COc1ccccc1CNc1nc(N)c2nc(-c3cccs3)sc2n1
Response: 103

Request: Fill in reported Activity for this entry: Nc1nc(NCCc2ccco2)nc2sc(-c3ccco3)nc12
Response: 97

Request: Fill in reported Activity for this entry: Nc1nc(NCc2cccs2)nc2sc(-c3ccco3)nc12
Response: 96

Request: Fill in reported Activity for this entry: Nc1nc(NCc2ccsc2)nc2sc(-c3ccco3)nc12
Response: 105

Request: Fill in reported Activity for this entry: Nc1nc(NCCc2ccc(O)cc2)nc2nc(-c3ccco3)nn12
Response: 105

----------
- Assay Target: Adenosine receptor A2a (Homo sapiens, UniProt P29274)
- Sequence (P29274 whole entry): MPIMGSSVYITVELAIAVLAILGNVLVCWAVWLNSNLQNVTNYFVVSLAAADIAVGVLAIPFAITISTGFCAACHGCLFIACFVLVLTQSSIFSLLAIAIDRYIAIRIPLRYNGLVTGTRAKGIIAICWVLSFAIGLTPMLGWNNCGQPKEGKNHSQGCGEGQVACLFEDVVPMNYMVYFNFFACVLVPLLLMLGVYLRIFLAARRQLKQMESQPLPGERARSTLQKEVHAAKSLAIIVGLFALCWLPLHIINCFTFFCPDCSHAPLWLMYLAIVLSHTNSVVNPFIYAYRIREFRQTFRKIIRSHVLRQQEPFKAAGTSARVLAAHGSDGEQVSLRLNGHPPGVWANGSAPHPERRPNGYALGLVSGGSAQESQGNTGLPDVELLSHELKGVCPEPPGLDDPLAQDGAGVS
- Method Description: Displacement of [3H]ZM241385 from human adenosine A2A receptor expressed in CHO cell membranes measured after 60 mins by scintillation counting method
Parameter: KiH (fM)

Request: Fill in reported KiH for this entry: Nc1nc(NCCc2cccs2)nc2sc(-c3ccco3)nc12
Response: 10.6

Request: Fill in reported KiH for this entry: Nc1nc(NCc2cccnc2)nc2sc(-c3ccco3)nc12
Response: 217

A. Nc1nc(NCc2cccs2)nc2sc(-c3ccco3)nc12
B. Nc1nc(NCc2ccco2)nc2sc(-c3ccco3)nc12
Request: Quick check, higher KiH between A and B ? Lab log: write the label of the selected item as the result.
Response: B
(B: 39 fM, A: 10.7 fM)

----------
- Assay Target: Adenosine receptor A2a (Homo sapiens, UniProt P29274)
- Method Description: Displacement of [3H]ZM241385 from human adenosine A2A receptor expressed in CHO cell membranes measured after 60 mins by scintillation counting method
Parameter: KiL (nM)

A. Nc1nc(NCc2cccs2)nc2sc(-c3ccco3)nc12
B. Nc1nc(NCc2ccco2)nc2sc(-c3ccco3)nc12
C. Nc1nc(NCCc2cccs2)nc2sc(-c3ccco3)nc12
D. Nc1nc(NCc2cccnc2)nc2sc(-c3ccco3)nc12
Request: I'd appreciate it if you sorted the entries above by their KiL, lowest to highest. # the answer lists labels in the order requested
Response: D, B, A, C

----------
pKi: −log10 of the molar value.
Recorded below: pKi, system Adenosine receptor A1 (Homo sapiens, UniProt P30542).
Parameter: pKi

Here is how some compounds turned out for pKi.
Request: Fill in reported pKi for this entry: Nc1nc(NCc2cccs2)nc2sc(-c3cccs3)nc12
Response: 7.14

Request: Fill in reported pKi for this entry: COc1ccccc1CNc1nc(N)c2nc(-c3ccc(C)o3)sc2n1
Response: 7.54

I. Cc1ccc(-c2nc3c(N)nc(NCc4cccs4)nc3s2)o1
II. COc1cccc(CNc2nc(N)c3nc(-c4cccs4)sc3n2)c1
III. COc1ccccc1CNc1nc(N)c2nc(-c3cccs3)sc2n1
Request: Give the ascending ranking of the items by reported pKi. # the answer lists labels in the order requested
Response: I, II, III

----------
Recorded below: Ki, system UniProt:P29274.
Parameter: Ki (µM)

1. COc1ccccc1CNc1nc(N)c2nc(-c3ccc(C)o3)sc2n1
2. Cc1ccc(-c2nc3c(N)nc(NCc4cccs4)nc3s2)o1
3. COc1cccc(CNc2nc(N)c3nc(-c4ccc(C)o4)sc3n2)c1
4. Nc1nc(NCc2cccs2)nc2sc(-c3cccs3)nc12
Request: I'd appreciate it if you sorted the entries above by their Ki, lowest to highest. # the answer lists labels in the order requested
Response: 4, 1, 2, 3

----------
- Assay Target: Adenosine receptor A1 (Homo sapiens) (UniProt P30542)
- Sequence (P30542 whole entry): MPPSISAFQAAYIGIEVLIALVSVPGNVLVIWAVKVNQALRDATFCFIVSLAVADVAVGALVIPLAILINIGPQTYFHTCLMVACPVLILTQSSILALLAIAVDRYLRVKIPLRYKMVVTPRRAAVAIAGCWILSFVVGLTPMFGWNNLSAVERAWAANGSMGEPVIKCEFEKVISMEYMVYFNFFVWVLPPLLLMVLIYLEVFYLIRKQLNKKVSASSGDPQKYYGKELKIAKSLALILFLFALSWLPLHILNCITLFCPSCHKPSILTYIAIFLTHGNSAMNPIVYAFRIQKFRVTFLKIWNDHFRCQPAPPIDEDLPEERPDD
- Method Description: Inverse agonist activity at human adenosine A1 receptor expressed in CHO cells assessed as cAMP accumulation at 10 uM measured after 150 mins in presence of [3H]cAMP by scintillation counting method relative to control
- Format: functional, cell-based
Parameter: Activity (%)

Request: Fill in reported Activity for this entry: Nc1nc(NCc2ccncc2)nc2sc(-c3ccco3)nc12
Response: 103

Request: Fill in reported Activity for this entry: Nc1nc(NCc2ccco2)nc2sc(-c3ccco3)nc12
Response: 101

Request: Fill in reported Activity for this entry: Nc1nc(NCCc2ccc(O)cc2)nc2nc(-c3ccco3)nn12
Response: 101

Request: Fill in reported Activity for this entry: Nc1nc(NCc2ccsc2)nc2sc(-c3ccco3)nc12
Response: 98

Request: Fill in reported Activity for this entry: Nc1nc(NCc2cccs2)nc2sc(-c3ccco3)nc12
Response: 98

Request: Fill in reported Activity for this entry: Nc1nc(NCc2ccccn2)nc2sc(-c3ccco3)nc12
Response: 103
